Target under test: CRTH2 receptor (Homo sapiens, UniProt Q9Y5Y4)
Construct: expressed in transfected cells; host or cells: Human embryonic kidney (HEK) cells, used as membranes
Sequence (Q9Y5Y4 whole entry): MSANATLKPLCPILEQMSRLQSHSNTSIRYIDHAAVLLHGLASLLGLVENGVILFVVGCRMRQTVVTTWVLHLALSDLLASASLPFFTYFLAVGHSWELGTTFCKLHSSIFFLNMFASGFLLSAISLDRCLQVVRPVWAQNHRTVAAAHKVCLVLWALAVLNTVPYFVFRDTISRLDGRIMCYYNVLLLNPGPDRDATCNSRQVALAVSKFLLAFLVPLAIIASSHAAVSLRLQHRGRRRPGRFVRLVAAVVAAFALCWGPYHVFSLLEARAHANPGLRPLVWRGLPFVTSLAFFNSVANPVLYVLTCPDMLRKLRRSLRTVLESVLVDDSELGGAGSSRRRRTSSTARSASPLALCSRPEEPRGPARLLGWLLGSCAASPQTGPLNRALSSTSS
Test method notes: CRTH2 radioligand binding assay ([3H]-PGD2 displacement, SPA)
Run conditions: HEK cell membranes expressing the CRTH2 receptor; 1 nM [3H]-PGD2; Ki from IC50 by Cheng-Prusoff
Attribute measured: Ki (nM)

Before answering, review these 2 worked examples.
I would be grateful if you could share the reported Ki for Cc1c(Cc2sccc2S(=O)(=O)c2ccccn2)c2cc(F)ccc2n1CC(=O)O . 2.4

Next entry: Cc1c(Cc2ccccc2S(=O)(=O)N(C)c2ccccc2)c2cc(F)ccc2n1CC(=O)O 0.6

I. Cc1c(Cc2sccc2S(=O)(=O)c2ccc(F)cc2)c2cc(F)ccc2n1CC(=O)O
II. Cc1c(Cc2cccnc2S(=O)(=O)c2ccccc2)c2cc(Cl)ccc2n1CC(=O)O
Dear colleague, could you let me know whether I or II has the lower recorded Ki? Thanks. Let me know the label of the one you choose. I
